Recorded IC50 values (Epidermal growth factor receptor (Homo sapiens)) are given below.
Answer with a number only, understood to be in nM.

Reference set, count: 3
- Chemical string: "C=CC(=O)Nc1cc(Nc2nccc(NC(=O)c3ccccc3)n2)c(OC)cc1N1CCN(C)CC1"
  IC50 / nM: 156
- Chemical string: "C=CC(=O)Nc1cc(Nc2nccc(NC(=O)c3ccc(C(F)(F)F)cc3)n2)c(OC)cc1N1CCN(C)CC1"
  IC50 / nM: 152
- Chemical string: "C=CC(=O)Nc1cc(Nc2nccc(NC(=O)c3cccc(OC)c3)n2)c(OC)cc1N1CCC(C(N)=O)CC1"
  IC50 / nM: 50.5

Now examine the next entry.
Entry C=CC(=O)Nc1cc(Nc2nccc(NC(=O)c3ccc(OC)c(OC)c3)n2)c(OC)cc1N1CCN(C)CC1 , Epidermal growth factor receptor (Homo sapiens) data, IC50 value: 157
